Below is a list of entries, each paired with its recorded IC50 value.
# target.entity: Acetyl-CoA carboxylase 2 (Homo sapiens)
# Sequence (O00763 whole entry): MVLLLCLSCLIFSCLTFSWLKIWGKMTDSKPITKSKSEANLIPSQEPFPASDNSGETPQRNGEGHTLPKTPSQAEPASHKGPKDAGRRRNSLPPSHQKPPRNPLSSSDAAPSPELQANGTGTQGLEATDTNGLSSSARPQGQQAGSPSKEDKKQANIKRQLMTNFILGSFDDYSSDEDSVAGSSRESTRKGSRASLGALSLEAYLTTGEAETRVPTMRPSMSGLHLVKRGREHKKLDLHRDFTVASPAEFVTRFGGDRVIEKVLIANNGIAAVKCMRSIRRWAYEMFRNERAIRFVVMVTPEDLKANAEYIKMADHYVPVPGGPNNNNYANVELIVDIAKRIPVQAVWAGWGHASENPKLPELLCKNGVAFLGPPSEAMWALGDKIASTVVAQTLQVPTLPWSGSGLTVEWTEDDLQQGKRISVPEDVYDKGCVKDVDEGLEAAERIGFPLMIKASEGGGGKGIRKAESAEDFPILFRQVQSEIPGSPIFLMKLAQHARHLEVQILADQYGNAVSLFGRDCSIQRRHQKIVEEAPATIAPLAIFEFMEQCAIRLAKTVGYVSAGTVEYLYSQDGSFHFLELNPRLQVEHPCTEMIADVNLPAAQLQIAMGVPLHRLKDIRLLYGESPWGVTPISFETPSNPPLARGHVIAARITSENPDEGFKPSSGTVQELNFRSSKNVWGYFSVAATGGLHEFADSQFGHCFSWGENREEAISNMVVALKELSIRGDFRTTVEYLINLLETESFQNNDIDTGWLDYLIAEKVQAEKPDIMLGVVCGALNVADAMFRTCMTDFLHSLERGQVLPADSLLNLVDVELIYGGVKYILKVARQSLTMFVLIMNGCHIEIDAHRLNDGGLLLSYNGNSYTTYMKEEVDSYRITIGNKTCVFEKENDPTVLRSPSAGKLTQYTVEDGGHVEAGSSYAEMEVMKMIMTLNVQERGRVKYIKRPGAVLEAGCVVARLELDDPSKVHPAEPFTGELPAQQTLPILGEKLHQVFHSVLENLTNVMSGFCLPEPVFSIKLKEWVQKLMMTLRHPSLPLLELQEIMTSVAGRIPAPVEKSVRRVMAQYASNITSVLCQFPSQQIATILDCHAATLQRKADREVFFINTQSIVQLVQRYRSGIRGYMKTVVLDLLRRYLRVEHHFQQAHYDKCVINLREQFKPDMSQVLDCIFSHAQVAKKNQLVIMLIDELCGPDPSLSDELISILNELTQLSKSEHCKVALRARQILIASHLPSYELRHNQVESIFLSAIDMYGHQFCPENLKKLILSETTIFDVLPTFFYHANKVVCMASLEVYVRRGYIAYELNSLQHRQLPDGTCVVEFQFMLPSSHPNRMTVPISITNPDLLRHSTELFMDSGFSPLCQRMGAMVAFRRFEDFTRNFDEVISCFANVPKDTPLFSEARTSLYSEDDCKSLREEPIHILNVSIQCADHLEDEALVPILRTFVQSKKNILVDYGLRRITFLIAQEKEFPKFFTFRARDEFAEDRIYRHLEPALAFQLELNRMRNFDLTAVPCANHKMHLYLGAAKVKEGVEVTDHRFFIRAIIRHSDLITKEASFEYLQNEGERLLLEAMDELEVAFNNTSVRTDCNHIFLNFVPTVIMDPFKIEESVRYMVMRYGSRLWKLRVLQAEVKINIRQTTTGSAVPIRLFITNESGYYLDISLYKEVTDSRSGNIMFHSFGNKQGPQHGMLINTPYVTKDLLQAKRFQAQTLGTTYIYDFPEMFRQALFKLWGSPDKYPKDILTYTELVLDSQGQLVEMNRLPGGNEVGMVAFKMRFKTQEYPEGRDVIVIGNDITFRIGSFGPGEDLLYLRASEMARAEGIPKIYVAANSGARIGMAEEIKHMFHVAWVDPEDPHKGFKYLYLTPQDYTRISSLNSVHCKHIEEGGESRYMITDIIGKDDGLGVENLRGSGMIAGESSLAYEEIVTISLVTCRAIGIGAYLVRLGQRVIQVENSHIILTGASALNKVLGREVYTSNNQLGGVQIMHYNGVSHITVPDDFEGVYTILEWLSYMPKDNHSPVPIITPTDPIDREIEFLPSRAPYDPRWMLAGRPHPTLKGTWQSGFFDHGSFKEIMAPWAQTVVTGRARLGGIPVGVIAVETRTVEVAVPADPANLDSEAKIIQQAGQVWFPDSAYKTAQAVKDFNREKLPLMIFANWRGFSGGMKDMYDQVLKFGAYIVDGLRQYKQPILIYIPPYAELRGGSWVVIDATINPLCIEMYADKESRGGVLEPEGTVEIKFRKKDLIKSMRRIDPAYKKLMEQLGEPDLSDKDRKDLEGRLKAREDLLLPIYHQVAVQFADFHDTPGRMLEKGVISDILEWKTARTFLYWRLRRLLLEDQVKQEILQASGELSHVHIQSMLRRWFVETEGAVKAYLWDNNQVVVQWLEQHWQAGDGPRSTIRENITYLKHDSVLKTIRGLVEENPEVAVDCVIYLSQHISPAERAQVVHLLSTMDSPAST
# measurement.protocol: Inhibition of human ACC2 using acetyl-coA as substrate incubated for 60 mins prior to substrate addition measured after 20 mins by malachite green assay
measurement.type: IC50 (nM)

>>> numeric_readout("CCNC(=O)Nc1sc2ccccc2c1C(=O)N1CCC(N2CCCC3(C2)C(=O)N2CCCCN2C3=O)CC1")
23
>>> numeric_readout("CNC(=O)Nc1sc2ccccc2c1C(=O)N1CCC(N2CCCC3(C2)C(=O)N2CCCCN2C3=O)CC1")
36
>>> numeric_readout("CCNC(=O)Nc1sc2ccccc2c1C(=O)N1CCC(N2CCCC3(C2)C(=O)N2CCCN2C3=O)CC1")
33
>>> numeric_readout("CNC(=O)Nc1sc2c(OC)cccc2c1C(=O)N1CCC(N2CCCC3(C2)C(=O)N2CCCCN2C3=O)CC1")
6.1
>>> numeric_readout("CCN1C(=O)C2(CCCN(C3CCN(C(=O)c4c(NC(=O)NC)sc5ccccc45)CC3)C2)C(=O)N1CC")
8.1
>>> numeric_readout("COc1cccc2c(C(=O)N3CCC(N4CCCC5(C4)C(=O)N4CCCCN4C5=O)CC3)c(NC(N)=O)sc12")
5.9
>>> numeric_readout("CCNC(=O)Nc1sc2ccccc2c1C(=O)N1CCC(N2CCCC3(C2)C(=O)N2CCCCCN2C3=O)CC1")
7.5

Numbers sourced from ChEMBL document CHEMBL2057206.
